Target desc: WT M2 (Influenza A virus)
Method: cell-based
Parameters: expressed in transfected cells; host or cells: Saccharomyces cerevisiae, multicopy plasmid, GAL1 promoter
Condition set: EC50, yeast growth restoration, yeast expressing WT M2, growth measured after 40 h
Sequence (P0DOF5 whole entry): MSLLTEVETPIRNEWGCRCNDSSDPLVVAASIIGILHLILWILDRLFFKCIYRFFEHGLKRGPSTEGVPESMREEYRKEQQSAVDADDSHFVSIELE
Reported endpoint: EC50 (nM)
Your answer should be a plain number; it is taken to be in nM.

Task: What does the data say about its EC50? Entry: `CCSC1=NCN(C2CCCCCCC2)CN1`
Result: 300

----------
Reported values of % inhibition at 100 µM in TEVC WT for individual entries
Target desc: WT M2 (Influenza A virus)
Method: cell-based
Sequence (P0DOF5 whole entry, looked up): as the sequence (P0DOF5 whole entry) above
Reply: number alone, nothing else.

Task: Item: Br.CSC1=NCN(C(C)(C)C)CN1 [Compound 25] Test system: WT M2 (Influenza A virus) Read-out: % inhibition at 100 µM in TEVC WT Value: ?
Result: 13.3

Task: What would you report for CCSC1=NCN(CC(C)(C)C)CN1 [Compound 32] ?
Result: 4.7

Task: Same question, Br.CSC1=NCN(CCCO)CN1 [Compound 26] this time
Result: 5.5

----------
Items are presented alongside their recorded log10(EC50).
Target desc: WT M2 (Influenza A virus)
Method: cell-based
Design: expressed in transfected cells; host or cells: Saccharomyces cerevisiae, multicopy plasmid, GAL1 promoter
Condition set: yeast expressing WT M2, growth measured after 40 h; read-out: EC50, yeast growth restoration
Base-10 log of EC50, unit µM.

Some solved entries appear below for comparison.
{"Compound": "CSC1=NCN(Cc2ccccc2)CN1", "Quantitative result": 1.08}
{"Compound": "CNCC(=O)C12CC3CCC(CC(C3)C1)C2", "Quantitative result": 0.48}
{"Compound": "O=C1NC(=S)NC(=O)C1=CNC12CC3CC(CC(C3)C1)C2", "Quantitative result": 0.40}

Task: For `CCSC1=NCN(CC2CCCCC2)CN1` , what is its reported log10(EC50)?
Result: -0.15

Task: Another compound to look at: `CC(=O)Nc1ccc(S(=O)(=O)NC23CC4CC(CC(C4)C2)C3)cc1`
Result: 0.70

Task: Now this one: `CS/C(=N/C#N)NC12CC3CC(CC(C3)C1)C2`
Result: 1.08

Task: What about this compound? c1cc2c(cc1NC1C3CC4CC(C3)CC1C4)OCO2 (centres unmarked)
Result: 1.30

Task: Another compound to check: Cc1cc(C(=O)NC2C3CC4CC(C3)CC2C4)no1 (centres unmarked)
Result: 0.18

----------
Target desc: WT M2 (Influenza A virus, UniProt P0DOF5)
Method: cell-based
Condition set: read-out: % inhibition at 100 µM in TEVC WT
Where a name gives a salt, the structure may show the parent alone.
# Lookup of reported inhibition at 100 µM keyed by entry
Reply numerically in %, unit not repeated.

{"Molecule": "CCSC1=NCN(CC(C)C)CN1", "Unit abbrev": "%", "inhibition at 100 µM": 1.2}
{"Molecule": "CCSC1=NCN(CC2CCCCC2)CN1", "Unit abbrev": "%", "inhibition at 100 µM": 63.9}
{"Molecule": "CSC1=NCN(Cc2cccs2)CN1", "Unit abbrev": "%", "inhibition at 100 µM": 8.1}

Task: Form field: reported inhibition at 100 µM of `CCSC1=NCN(Cc2ccccc2)CN1`
Result: 5.4

Task: Query CN(C)c1nc(N)c(C(=O)NC(=N)N)nc1Cl [Compound 20, 5-(N,N-Dimethyl)amiloride hydrochloride] next
Result: 23.3

Task: Similarly, CCN(c1nc(N)c(C(=O)NC(=N)N)nc1Cl)C(C)C [Compound 21, 5-(N-Ethyl-N-isopropyl)amiloride] ?
Result: 47.3

Task: What do we get for `CSC1=NCN(Cc2ccccc2)CN1` ?
Result: 4.5

Task: What about this molecule? `CCSC1=NCN(C2CCCCCCC2)CN1`
Result: 89.7

Task: Same for `O=[N+]([O-])c1ccc(CNC23CC4CC(CC(C4)C2)C3)cc1`
Result: 43.5

Task: Now this one: `CCSC1=NCN(Cc2cccs2)CN1`
Result: 6.7

----------
Method: in vitro
Condition set: dog
Reported endpoint: CC50 (µM)
Reply with just the number (in µM).

{"Compound": "NC(N)=NC(=O)c1nc(Cl)c(N2CCCCCC2)nc1N [Compound 14, Hexamethylene amiloride]", "Quantitative result": 16}

Next item in the queue.
Task: Look up CC50 for this compound: `CCSC1=NCN(C2CCCCCCC2)CN1`
Result: 75

----------
Method: in vitro
Condition set: dog
Listing: CC50 of selected compounds

{"Compound": "Cc1ncc(C23CC4CC(CC(C4)C2)C3)[nH]1 [Compound 10]", "CC50": "> 100 µM"}
{"Compound": "NC12CC3CC(CC(C3)C1)C2 [Amantadine, reference compound]", "CC50": "~100 µM"}

Task: Quick check: CC50 of CC(NC(=S)NC(=O)C=Cc1ccco1)C12CC3CC(CC(C3)C1)C2 (stereo not drawn) [Compound 6] ?
Result: > 30 µM

// data source = paper PMC3562233
